Tested on: NIH3T3
Run description: qHTS assay to identify novel small-molecules to repurpose for Merkel cell carcinoma treatment (AID 1296009); note: nearly all actives have a fitted effect of over 60% in size
Condition parameters: MCC and control cell lines, CellTiter-Glo viability, 72 h; at 44.8 µM (top of the series) unless noted
Records with an inconclusive call do not appear. The source made the active and inactive calls. Calls come from the whole dose curve; as a rule, active = well fitted inhibition curve with a large enough effect; inconclusive = small, poorly fitted or top-dose-only effect; inactive = flat fitted curve, though single readings scatter.
Reported property: outcome

# count of solved cases: 10
CC1(C)C[C@H](O)C[C@@]2(C)[C@H]1[C@H](O)C=C1COC(=O)[C@@]12O = inactive
CC(=O)/C=C/C1C(C)CC(O[C@@H]2O[C@H](CO)[C@@H](O)[C@H](O)[C@H]2O)CC1(C)C (some centres not stated) = inactive
C=C1[C@H]2CCC3[C@]4(C)CCC[C@@](C)(C(=O)O)C4CC[C@]3(C2)[C@H]1OC(C)=O (some centres not stated) = inactive
CC(O)/C=C/C1(O)C(C)C(O)C(O[C@@H]2O[C@H](CO)[C@@H](O)[C@H](O)[C@H]2O)CC1(C)C (some centres not stated) = inactive [at 17.4 µM]
C/C(=C\C(=O)C(C)C1CCC2C3=C(CCC21C)C1(C)CCC(=O)C(C)(C)C1(O)CC3)C(C)(C)O (configuration not stated) = inactive [at 17.4 µM]
COc1ccc([C@H]2OC[C@H]3[C@@H]2CO[C@@H]3c2ccc(O[C@@H]3O[C@H](CO)C(O)[C@H](O)[C@H]3O)c(OC)c2)cc1OC (some centres not stated) = inactive [at 17.4 µM]
COc1cc(C)c(C(=O)OC2C(C)OC(OC3CCC(C)C4C3C=C(C)C3/C(C)=C\CC/C(C)=C/C5(C)C=C(C(=O)O)C(C)CC56OC(=O)/C(=C(\O)C34C)C6=O)C(O)C2O)c(OC)c1 (configuration not stated) = inactive [at 9.27 µM]
CC1=C2CC(=O)C(C)CC/C=C(\C)CC2(O)OC1=O (configuration not stated) = inactive
C/C=C/C(=O)OC1/C=C/C(O)C(OC(C)=O)CCC(=O)OC1C (configuration not stated) = inactive
c1cc(-c2cc(C3CCNCC3)[nH]n2)ccn1 = inactive [at 17.4 µM]

## Input Give outcome for this entry on NIH3T3: CCCCS(=O)(=O)NC(Cc1ccc(OCCCCC2CCNCC2)cc1)C(=O)O (configuration not stated)
## Output inactive

## Input Give outcome for this entry on NIH3T3: O=C(O)c1cc(C(F)(F)F)ccc1N1CC[C@H](OCc2ccccn2)C1
## Output inactive

## Input Give outcome for this entry on NIH3T3: CC(C)C1NC(=O)C(CC2(O)c3ccccc3N3C(=O)C(Cc4ccccc4)NC32)NC1=O (configuration not stated)
## Output inactive [at 17.4 µM]

## Input Give outcome for this entry on NIH3T3: CC1(CO)CCCC2(C)C3COC(=O)C3=CC(O)C12 (configuration not stated)
## Output inactive

## Input Give outcome for this entry on NIH3T3: C[C@@]12CC3(S(=O)(=O)O)OC(O1)[C@]1(COC(=O)c4ccccc4)[C@H]3C[C@]21O[C@@H]1O[C@H](CO)[C@@H](O)[C@H](O)[C@H]1O
## Output inactive [at 17.4 µM]

## Input Give outcome for this entry on NIH3T3: CN(C)CCC[C@]1(c2ccc(F)cc2)OCc2cc(C#N)ccc21
## Output inactive

## Input Give outcome for this entry on NIH3T3: COC(=O)C[C@@H]1C(C(=O)O)=CO[C@@H](O[C@@H]2O[C@H](CO)[C@@H](O)[C@H](O)[C@H]2O)/C1=C\COC(=O)/C=C/c1ccc(O)c(OC)c1
## Output inactive [at 17.4 µM]

## Input Give outcome for this entry on NIH3T3: Cc1ccc(-c2c(-c3nn(C)c4ncnc(N5CC[C@H](N6CCCCC6)C5)c34)cnn2C)cc1
## Output inactive

## Input Give outcome for this entry on NIH3T3: CCC(CC)CC1(C(=O)Nc2ccccc2SC(=O)C(C)C)CCCCC1
## Output inactive

## Input Give outcome for this entry on NIH3T3: C/C=C1/[C@H](O[C@@H]2O[C@H](CO)[C@@H](O)[C@H](O)[C@H]2O)OC=C(C(=O)OC)[C@H]1CC(=O)OCCc1ccc(O)c(O)c1
## Output inactive [at 17.4 µM]

## Input Give outcome for this entry on NIH3T3: CN1CCCC1Cc1c[nH]c2ccc(CCS(=O)(=O)c3ccccc3)cc12 (configuration not stated)
## Output inactive

## Input Give outcome for this entry on NIH3T3: CCC(C)/C=C(C)/C=C/C1=CC2=C(Cl)C(=O)C(C)(O)C(=O)C2(O)C(OC)O1 (configuration not stated)
## Output inactive [at 17.4 µM]

## Input Give outcome for this entry on NIH3T3: C=C1C(O)C(O)C2(CC3C(C)=CCC4C(C)(C(=O)O)CCCC34C)OC2C1O (configuration not stated)
## Output inactive

## Input Give outcome for this entry on NIH3T3: C=C(C(=O)O)[C@@H]1CC[C@@]2(C)CC[C@@H](O)C(=C)C2C1 (some centres not stated)
## Output inactive

## Input Give outcome for this entry on NIH3T3: O=c1[nH]ccc2nc(-c3ccc(CN4CCC(c5nc(-c6ccccn6)n[nH]5)CC4)cc3)c(-c3ccccc3)cc12
## Output inactive

## Input Give outcome for this entry on NIH3T3: CCN1CCN(C(=O)N[C@@H](C(=O)N[C@@H]2C(=O)N3[C@@H]2SC(C)(C)[C@@H]3C(=O)O)c2ccccc2)C(=O)C1=O
## Output inactive

## Input Give outcome for this entry on NIH3T3: CC1=CC[C@@]2(C)CC[C@@](O)(C(C)C)[C@@H]2[C@@H](O)C1
## Output inactive

## Input Give outcome for this entry on NIH3T3: CCC(C)C(N)C(=O)NCCN1CCOCC1 (configuration not stated)
## Output inactive
